- TARGET_ENTITY: Pa MurB (Pseudomonas aeruginosa, UniProt Q9HZM7)
- Sequence (Q9HZM7 whole entry): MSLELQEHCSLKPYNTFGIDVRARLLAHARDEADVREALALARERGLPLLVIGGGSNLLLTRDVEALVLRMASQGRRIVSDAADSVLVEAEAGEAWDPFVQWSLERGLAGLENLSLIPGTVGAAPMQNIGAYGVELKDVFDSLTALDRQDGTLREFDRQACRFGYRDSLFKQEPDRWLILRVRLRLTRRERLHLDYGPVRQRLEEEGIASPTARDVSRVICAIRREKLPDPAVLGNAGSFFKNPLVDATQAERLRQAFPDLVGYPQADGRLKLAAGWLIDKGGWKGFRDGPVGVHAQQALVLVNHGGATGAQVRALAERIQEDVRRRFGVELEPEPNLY
- EXPERIMENT_DESCRIPTION: Isothermal titration calorimetry
- Type: binding
- STATED_CONDITIONS: Kd(μM) ITC, Table 4; 50 μM MurB, 3.0 mM fragment; fragment 41: 200 μM MurB
READOUT_LABEL: Kd (µM)

[[record]]
query_smiles = "Cc1ccc(-n2ncc(C(=O)O)c2C(F)(F)F)c(C)c1"
readout_label = "Kd"
unit_tag = "µM"
quantitative_readout = 85.5


(I) O=C(O)c1cnn(-c2c(Cl)cccc2Cl)c1C(F)(F)F
(II) Cc1cccc(-n2ncc(C(=O)O)c2C(F)(F)F)c1C
(III) Cc1cc([N+](=O)[O-])ccc1-n1ncc(C(=O)O)c1C(F)(F)F
Given 3 compounds, produce a descending ranking by Kd. Labels, requested order.
III, II, I
(III: 208 µM, II: 99 µM, I: 60.2 µM)
